Data origin: patent US20190119389A1

System Under Test: T1, recombinant human NRP-1 (human, UniProt O14786 22-856, limits assumed)
T1 construct: also called biotinylated human NRP-1
T1 sequence (O14786 22-856 V179A limits assumed): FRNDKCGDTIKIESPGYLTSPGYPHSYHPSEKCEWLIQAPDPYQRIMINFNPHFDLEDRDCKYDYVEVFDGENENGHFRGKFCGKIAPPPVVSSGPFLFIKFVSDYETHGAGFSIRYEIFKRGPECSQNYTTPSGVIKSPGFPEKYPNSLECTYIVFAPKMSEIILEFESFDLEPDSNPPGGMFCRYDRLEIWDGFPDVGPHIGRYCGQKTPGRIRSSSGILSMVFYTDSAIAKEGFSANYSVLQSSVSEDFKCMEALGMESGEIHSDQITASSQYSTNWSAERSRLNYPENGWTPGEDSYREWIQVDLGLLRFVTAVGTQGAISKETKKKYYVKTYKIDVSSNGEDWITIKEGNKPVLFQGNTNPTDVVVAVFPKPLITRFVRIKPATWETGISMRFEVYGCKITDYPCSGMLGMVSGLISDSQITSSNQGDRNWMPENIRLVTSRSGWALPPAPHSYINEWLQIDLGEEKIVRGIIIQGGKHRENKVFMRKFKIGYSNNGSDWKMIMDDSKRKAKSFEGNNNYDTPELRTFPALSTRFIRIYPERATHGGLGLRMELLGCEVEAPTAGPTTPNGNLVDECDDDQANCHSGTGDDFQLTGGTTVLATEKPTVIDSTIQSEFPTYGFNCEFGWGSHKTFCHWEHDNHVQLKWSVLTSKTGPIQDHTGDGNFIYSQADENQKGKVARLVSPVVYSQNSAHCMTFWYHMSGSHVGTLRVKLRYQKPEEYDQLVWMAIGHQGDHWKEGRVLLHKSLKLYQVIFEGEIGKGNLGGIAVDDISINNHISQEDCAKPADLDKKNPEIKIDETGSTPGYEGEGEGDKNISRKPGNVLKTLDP
Protocol Description: blocking ELISA: SEMA3A coated, biotinylated human NRP-1 preincubated with IgG1 antibody; competitor SEMA3A
Endpoint Name: IC50 (nM)
Answer with a number only, understood to be in nM.

Q: Given MAB10 (antibody, V domains shown) VH: EVQLLESGGGLVQPGGSLRLSCAASGFTFSSVAMVWVRQAPGKGLEWVSAISGSGGATYYADSVKGRFTISRDNSKNTLYLQMNSLRAEDTAVYYCAKDPGYDSSRYYYSNYGMDVWGQGTTVTVSS VL: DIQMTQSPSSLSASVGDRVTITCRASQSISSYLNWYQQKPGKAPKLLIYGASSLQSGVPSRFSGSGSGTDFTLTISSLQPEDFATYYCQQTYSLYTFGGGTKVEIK , state its recorded IC50.
Result: 1.5

Q: Given MAB11 (antibody, V domains shown) VH: EVQLLESGGGLVQPGGSLRLSCAASGFTFSSVAMVWVRQAPGKGLEWVSAISGSGGATYYADSVEGRFTISRDNSKNTLYLQMSSLRAEDTAVYYCAKDPGYDSSRYYYSNYGMDVWGQGTTVTVSS VL: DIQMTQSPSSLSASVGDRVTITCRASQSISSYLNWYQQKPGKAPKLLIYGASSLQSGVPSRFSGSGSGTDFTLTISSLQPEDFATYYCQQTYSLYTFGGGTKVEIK , state its recorded IC50.
Result: 0.8

Q: Given MAB4 (antibody, V domains shown) VH: QVQLVQSGAEVKKPGASVKVSCKASGYTFSRYYMHWVRQAPGQGLEWMGIINPLGGSTLYAQKFQGRVTMTRDTSTSTVYMELSSLRSEDTAVYYCARDLGYYGSGMHVWGQGTLVTVSS VL: DIQMTQSPSSVSASVGDRVTITCRASQGISRWLAWYQQKPGKAPKLLIYAASSLQSGVPSRFSGSGSGTDFTLTISSLQPEDFATYYCQQANLLPFTFGGGTKVEIK , state its recorded IC50.
Result: 3.9
